meta.source: paper PMC10397247

Overview of reported interaction score across a group of binders:
- Target System: T1, 4H3354-bA
- T1 chain: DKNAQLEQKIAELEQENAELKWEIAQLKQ
- Assay Name: two-hybrid library CCNG1;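 further: natural log of median RNA to DNA barcode read ratio; higher means stronger binding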
Metric: interaction score

Binder	Metric	Meas Value
DENAQLKQKIAELEQKNAELEWKIAQLEQ [4H1845-bA]	interaction score	-0.823
DENAQLKQKIAELEQKIAELEWENAQLKQ [4H1828-bA]	interaction score	0.0682
DKIAQLKQEIAELKQKIAELKWENAQLEQ [4H2667-bA]	interaction score	-0.643
DENAQLEQKNAELEQKIAELEWKIAQLKQ [4H1446-bA]	interaction score	-0.413
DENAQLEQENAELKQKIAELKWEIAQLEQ [4H1257-bA]	interaction score	-0.884
DKNAQLEQEIAELKQKNAELEWEIAQLEQ [4H3185-bA]	interaction score	-1.03
DKIAQLKQEIAELEQEIAELKWKNAQLKQ [4H2576-bA]	interaction score	-0.69
